Test system: NCI-H460 cells
EXPERIMENT_NOTES: Proliferation assay, NCI-H460 (crystal violet)
Assay type: cell-based
CONDITION_SET: Homo sapiens, 96 h; NCI-H460, 4 days; read-out: Inhibition of NCI-H460 cell proliferation IC50
Listed here: items and their measured pIC50.
Reminder that pIC50 means the negative base-10 logarithm of the concentration expressed in mol/L.

CS(=N)(=O)Cc1cc2cc(c1)OCCCNc1cc(ccc1F)-c1nc(ncc1F)N2 (racemic): 7.60

Lab note: molecule CS(=N)(=O)Cc1cc2cc(c1)OCCCCNc1cc(ccc1F)-c1nc(ncc1F)N2 (racemic) tested on NCI-H460 cells; recorded pIC50 was 8.04

Lab note: molecule CC(C)(C)OC(=O)N=S(C)(=O)Cc1cc2cc(c1)OCCCCNc1cc(ccc1F)-c1nc(ncc1F)N2 (racemic) tested on NCI-H460 cells; recorded pIC50 was 7.48

* * *

TARGET_OR_TEST_SYSTEM: CDK9/CycT1 (Homo sapiens, UniProt P50750)
Construct: Recombinant full-length His-tagged human CDK9 and CycT1; His
Sequence (P50750 whole entry): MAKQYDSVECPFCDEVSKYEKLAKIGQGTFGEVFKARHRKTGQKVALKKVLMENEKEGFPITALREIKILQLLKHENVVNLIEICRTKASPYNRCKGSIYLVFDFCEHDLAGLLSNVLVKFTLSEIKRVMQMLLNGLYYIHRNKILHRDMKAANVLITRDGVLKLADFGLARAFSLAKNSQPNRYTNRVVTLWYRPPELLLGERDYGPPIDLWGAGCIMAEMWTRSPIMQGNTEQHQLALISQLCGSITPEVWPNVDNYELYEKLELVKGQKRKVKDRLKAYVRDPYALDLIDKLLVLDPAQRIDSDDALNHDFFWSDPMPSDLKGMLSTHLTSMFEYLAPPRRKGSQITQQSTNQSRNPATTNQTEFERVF
Sequence (O60563 whole entry partner): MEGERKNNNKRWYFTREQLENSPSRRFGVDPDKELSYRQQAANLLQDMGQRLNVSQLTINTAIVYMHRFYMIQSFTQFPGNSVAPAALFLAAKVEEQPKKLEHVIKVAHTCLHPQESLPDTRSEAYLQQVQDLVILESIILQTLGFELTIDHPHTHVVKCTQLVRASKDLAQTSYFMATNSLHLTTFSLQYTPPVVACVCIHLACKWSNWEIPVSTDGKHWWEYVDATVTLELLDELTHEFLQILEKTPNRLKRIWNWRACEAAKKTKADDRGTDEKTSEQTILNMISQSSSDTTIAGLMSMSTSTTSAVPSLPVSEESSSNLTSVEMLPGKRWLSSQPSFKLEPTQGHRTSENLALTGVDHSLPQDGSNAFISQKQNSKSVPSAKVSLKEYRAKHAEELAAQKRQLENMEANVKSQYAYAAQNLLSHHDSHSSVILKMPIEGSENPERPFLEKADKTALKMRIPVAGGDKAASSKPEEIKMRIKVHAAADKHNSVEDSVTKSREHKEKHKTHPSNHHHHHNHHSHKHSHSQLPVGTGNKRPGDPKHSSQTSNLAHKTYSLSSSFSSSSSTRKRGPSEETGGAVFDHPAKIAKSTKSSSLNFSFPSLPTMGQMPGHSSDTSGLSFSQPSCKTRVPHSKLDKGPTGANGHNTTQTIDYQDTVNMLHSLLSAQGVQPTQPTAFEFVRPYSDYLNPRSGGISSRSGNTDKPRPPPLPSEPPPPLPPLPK
EXPERIMENT_NOTES: CDK9/CycT1 high ATP kinase assay (TR-FRET)
CONDITION_SET: 2 mM ATP, Method 1b
EXPERIMENTAL_READOUT: pIC50
Reminder that pIC50 means the negative base-10 logarithm of the concentration expressed in mol/L.

The following molecules have reported results that may help.
CS(=N)(=O)Cc1cc2cc(c1)OCCCCCNc1cc(ccc1F)-c1nc(ncc1F)N2 (racemic) [Example 5]: 8.80
CC(C)(C)OC(=O)N=S(C)(=O)Cc1cc2cc(c1)OCCCCNc1cc(ccc1F)-c1nc(ncc1F)N2 (racemic) [Example 1]: 8.47

// next item, pIC50 requested
So, CS(=N)(=O)Cc1cc2nc(c1)OCCCCNc1cc(ccc1F)-c1cc(ncc1F)N2 (racemic) [Example 6] ? Its pIC50 was 8.40

Attribution: patent US11691986B2
